test system: Hepatitis C virus; assay: Antiviral activity against HCV infected in human BB7 cells assessed as inhibition of viral replication after 3 days relative to HCV-796; type: functional, Hepacivirus hominis
EXPERIMENTAL ENDPOINT: Ratio
Numbers only.

Examples with answers:
CNC(=O)c1c(-c2ccc(F)cc2)oc2cc(N(CCOP(=O)(O)O)S(C)(=O)=O)c(C3CC3)cc12 = 8.9
CNC(=O)c1c(-c2ccc(F)cc2)oc2cc(N(CCO)S(C)(=O)=O)c(C3CC3)cc12 = 1

Next molecule, please.
// Ratio value for CNC(=O)c1c(-c2ccc(F)cc2)oc2cc(N(CCOC(=O)CCC(=O)OC[C@H]3O[C@@H](n4cnc(C(N)=O)n4)[C@H](O)[C@@H]3O)S(C)(=O)=O)c(C3CC3)cc12 : 6.2

----------
tested on: Hepatitis C virus; experiment: Antiviral activity against HCV infected in human BB7 cells assessed as inhibition of viral replication after 3 days relative to HCV-796; assay type: functional, Hepacivirus hominis
EXPERIMENTAL ENDPOINT: Ratio
One number for each entry.

CNC(=O)c1c(-c2ccc(F)cc2)oc2cc(N(CCOP(=O)(O)OC[C@H]3O[C@@H](n4cnc(C(N)=O)n4)[C@H](O)[C@@H]3O)S(C)(=O)=O)c(C3CC3)cc12 = 7.3
CNC(=O)c1c(-c2ccc(F)cc2)oc2cc(N(CCOP(=O)(O)OC[C@H]3O[C@@H](n4cnc(C(N)=O)n4)[C@@H]4OC(C)(C)O[C@@H]43)S(C)(=O)=O)c(C3CC3)cc12 = 18.6

Next molecule, please.
// Ratio value for CNC(=O)c1c(-c2ccc(F)cc2)oc2cc(N(CCOC(=O)CCC(=O)OC[C@H]3O[C@@H](n4cnc(C(N)=O)n4)[C@@H]4OC(C)(C)O[C@@H]43)S(C)(=O)=O)c(C3CC3)cc12 : 13
